# System: BT-549
# EXPERIMENT DESCRIPTION: NCI tumour cell line growth inhibition, 48 h
Activity calls are given as the source filed them. Cut-off read from the data, not from the text of the source: active = GI50 up to about 1.1 µM and inactive = higher. Residues, ends and D or L forms follow the SMILES beside them. *: point of attachment. Cbz = O=C(OCc1ccccc1)*
Parameter GI50: see the listing below.
METRIC: GI50

1. COc1ccc(/N=N/C(=O)NC(CC(C)C)C(=O)NC(CC(C)C)C(=O)O)cc1 (stereo not given) | > 100 µM (inactive)
2. CC(=O)OC1=C(c2ccccc2)S(=O)(=O)c2ccccc21 | > 100 µM (inactive)
3. O=C1Nc2ccc(Cl)cc2C(=O)N2CCC[C@@H]12 | > 100 µM (inactive)
4. C/C=C(\C)C(=O)OC1/C=C(\C)CC/C=C(\C)CC2OC(=O)C(C)(OC(C)=O)C12 (stereo not given) | > 100 µM (inactive)
5. CC(C)(Br)C(Br)CCC(C)(Br)C(Br)CO (stereo not given) | > 10 µM (inactive)
6. NC(=O)CCSC(CC(=O)c1ccc(Cl)cc1)c1ccc(Cl)cc1 (stereo not given) | 36.1 µM (inactive)
7. Cc1ccc(C(=O)C2CC3(CCC2(O)c2ccc(C)cc2)CC(=O)Nc2ccccc2C3=O)cc1 (stereo not given) | > 100 µM (inactive)
8. CNc1ccc(N)cc1C(=O)N1CCC[C@H]1CO | > 100 µM (inactive)
9. CN(C)C(=O)CO/N=C1/C(=C2/C(=O)Nc3ccccc32)Nc2ccccc21 | 65.9 µM (inactive)
10. CC(NC(=O)C(NC(=O)OCc1ccccc1)C(C)C)C(=O)NCC(=O)O (stereo not drawn) (Cbz-Val-Ala-Gly-OH; configuration not given here) | > 100 µM (inactive)
